Reported Ki for target or system Androgen receptor (Rattus norvegicus), by entry.
Give a bare numeral; the unit µM is implied.

C#C[C@]1(O)CCC2C3CC[C@H]4Cc5nc(S(C)(=O)=O)sc5C[C@]4(C)C3CC[C@@]21C (some centres undefined)
0.86

Turning to the following compound.
IN: Given C#C[C@]1(O)CCC2C3CC[C@H]4Cc5oc(S(C)(=O)=O)cc5C[C@]4(C)C3CC[C@@]21C (some centres undefined) , respond with its Ki.
OUT: 0.52

====

molecular target: Androgen receptor (Rattus norvegicus, UniProt P15207); assay: […] binding affinity for rat ventral prostate androgen receptor by displacement of [3H]R-1881; design: species or system Prostate gland
Sequence (P15207 whole entry S389L): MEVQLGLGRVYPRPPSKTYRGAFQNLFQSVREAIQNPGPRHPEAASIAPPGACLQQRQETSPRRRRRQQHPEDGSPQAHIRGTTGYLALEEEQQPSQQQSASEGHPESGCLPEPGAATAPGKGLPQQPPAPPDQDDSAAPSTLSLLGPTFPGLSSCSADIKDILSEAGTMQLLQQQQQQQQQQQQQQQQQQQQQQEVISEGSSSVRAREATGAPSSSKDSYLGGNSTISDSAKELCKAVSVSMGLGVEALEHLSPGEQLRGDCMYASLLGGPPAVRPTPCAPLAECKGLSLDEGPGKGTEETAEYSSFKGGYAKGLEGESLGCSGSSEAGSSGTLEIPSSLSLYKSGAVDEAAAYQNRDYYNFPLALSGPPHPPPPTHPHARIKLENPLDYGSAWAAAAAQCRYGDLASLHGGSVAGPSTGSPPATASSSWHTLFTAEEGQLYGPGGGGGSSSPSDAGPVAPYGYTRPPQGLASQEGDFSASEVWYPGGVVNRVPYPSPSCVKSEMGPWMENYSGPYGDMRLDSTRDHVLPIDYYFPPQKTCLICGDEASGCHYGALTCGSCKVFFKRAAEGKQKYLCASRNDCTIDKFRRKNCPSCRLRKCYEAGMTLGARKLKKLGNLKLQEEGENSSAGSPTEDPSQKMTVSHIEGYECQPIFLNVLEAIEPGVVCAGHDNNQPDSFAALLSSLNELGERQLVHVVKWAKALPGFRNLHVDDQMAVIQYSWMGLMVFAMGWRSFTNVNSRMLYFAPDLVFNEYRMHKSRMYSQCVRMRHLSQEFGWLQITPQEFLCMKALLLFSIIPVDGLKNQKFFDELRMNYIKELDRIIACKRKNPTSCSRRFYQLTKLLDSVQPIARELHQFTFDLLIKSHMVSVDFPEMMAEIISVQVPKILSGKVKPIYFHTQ
Reported metric: Ki
Report the figure along with its unit, number first.

IN: Enter recorded Ki with Androgen receptor (Rattus norvegicus, UniProt P15207) for C#C[C@]1(O)CCC2C3CC[C@H]4Cc5nc(S(C)(=O)=O)ncc5C[C@]4(C)C3CC[C@@]21C (stereo partly specified) here.
OUT: 3 µM
